Tested on: MOLT-4 leukemia
Test: NCI-60 one-dose screen, 48 h (100 = growth as untreated, 0 = no growth, -100 = all killed)
Settings: 10 µM unless noted
About 83,000 compounds went through this panel and 20% of them were active in at least one assay; those are over-represented in the sample as a whole.
Below, each entry is listed alongside its reported growth.
Answer with a number only, understood to be in %.

| compound | quantity.name | measured.result |
| --- | --- | --- |
| COc1ccc(-c2nc(N/N=C/c3c[nH]c4ccccc34)nc(N3CCOCC3)c2C#N)cc1 | growth | 55.6 |
| CC(c1ccccc1)n1ccnc1CO (stereo not given) | growth | 107 |
| O=S(=O)(NCCCNc1nccc(-c2c(-c3ccccc3)nc3occn23)n1)c1ccc(Cl)cc1 | growth | 68.1 |
| CCOc1cc(CNc2ccc(N3CCOCC3)c(C(=O)O)c2)ccc1OC | growth | 104 |
| COc1ccc(/C(=C\c2ccccc2)C(=O)O)cc1OC | growth | 108 |
| Cc1ccc2nc3c(cc2c1)CSc1nnc(-c2ccc[nH]c2=S)n1N3 | growth | 91.9 |

INPUT: Fill blank: measured growth of the compound O=C(O)C(/C=C/c1ccco1)=N\Nc1nc(-c2ccc(Cl)cc2)cs1 is ____.
OUTPUT: 40.9

INPUT: Fill blank: measured growth of the compound COc1ccccc1Nc1cc(O)c2c(=O)cc(-c3ccccc3)oc2c1 is ____.
OUTPUT: 25.9

INPUT: Fill blank: measured growth of the compound Clc1ccc(C2CC(c3cccc(Nc4ccncc4)c3)=NN2c2cc(Cl)cc(Cl)c2)cc1 (stereo not given) is ____.
OUTPUT: 7.7

INPUT: Fill blank: measured growth of the compound Cc1c2c(cc[n+]1Cc1ccccc1)c1ccc(OCc3ccccc3)cc1n2Cc1ccccc1 is ____.
OUTPUT: -51

* * *

Tested on: NCI-H460 lung
Assay: NCI-60 one-dose screen, 48 h
Conditions: 10 µM unless noted
Compounds without any hit were thinned out: in the full panel of roughly 83,000, 20% have a hit. Activity calls are given as the source filed them. The calls were made as follows: active = growth percent below 10; inactive = the rest.
Answer with one of the outcomes given here: t for active, f for inactive

| compound | system.tested | class |
| --- | --- | --- |
| Clc1ccc(N2N=C(c3cccc(Nc4ccncc4)c3)CC2c2ccc3c(c2)OCO3)cc1 (configuration not stated) | NCI-H460 lung | t |
| CC(=O)c1c(-c2ccc(OC(F)(F)F)cc2)nc2ccccn12 | NCI-H460 lung | f |

INPUT: Hey, what did the test say about Cn1c(COC(=O)NCCn2ccnc2)nc2c(N3CCOCC3)nc(-c3ccccc3)nc21 ?
OUTPUT: t

INPUT: Hey, what did the test say about O=C(CCN1CCCC1)Nc1ccc2c(NCc3ccc(F)cc3)c3ccccc3nc2c1 ?
OUTPUT: t

INPUT: Hey, what did the test say about CN1CCCC1=Nc1ccccc1 ?
OUTPUT: f

INPUT: Hey, what did the test say about Cc1cccc(Oc2ccc(Nc3ncnc4ccc(NC(=O)CN(C)C)cc34)cc2Cl)c1 ?
OUTPUT: t

INPUT: Hey, what did the test say about CCN1C(=O)N(CC)C2NC(SC)=NC21 (configuration not stated) ?
OUTPUT: f

INPUT: Hey, what did the test say about COc1ccc(C(=O)c2cc(C)c(OC)c(C)c2)c(OC)c1O ?
OUTPUT: t
